Reference for the values: ChEMBL document CHEMBL1201862

test system: MDA-MB-231; experiment: NCI tumour cell line growth inhibition, 48 h
Calls of active or inactive are those of the source. Rule as the data show it: active = GI50 up to about 1.1 µM and inactive = higher.
Measured GI50 accompanies every entry in the list below.

Below: 5 compounds and their reported GI50.
Data request, read-out GI50, for O=C(O)c1ccc(SSc2ccc(C(=O)O)cn2)nc1 > 100 µM (inactive)

For the compound CC1=NNC(=O)C1C(CC(=O)c1c[nH]c2ccccc12)C(=O)O (stereo unspecified) , what GI50 is on record? > 100 µM (inactive)

Which GI50 value belongs to O=C(O)c1cccc(SSc2cccc(C(=O)O)c2)c1 ? > 100 µM (inactive)

Dear colleague, I am looking for the recorded GI50 of the following compound: [O-][S+](Nc1ccccc1)c1ccc(Cl)c(Cl)c1 (stereo unspecified) 40.9 µM (inactive)

Could you share which GI50 value was measured for CC(=O)OC1C[C@@H](C)C2(CC(c3ccoc3)OC2=O)C2CCC(O)C3(CO3)C12CO (stereo partly specified) ? > 100 µM (inactive)

---
Find the recorded GI50 belonging to CO/C(=N\N=C\c1ccc(C(F)(F)F)cc1)c1ccncc1 and report it. > 10 µM (inactive)

Need GI50 of CCOC(=O)c1c(N)sc2c1C(C(=O)OCC)CCCC2 (stereo unspecified) , thanks. 46.8 µM (inactive)

What measured GI50 goes with COc1oc(C(=O)NC2CCCCC2)c(-c2ccc(Cl)cc2)c1S(=O)(=O)c1ccccc1 ? 9.51 µM (inactive)

Which measured GI50 value corresponds to COP(=N[Si](C)(C)C)(OC)OC ? > 100 µM (inactive)

// query GI50 value for entry O=S(=O)(c1ccccc1)C1CC(c2nc3ccccc3[nH]2)=NO1 (stereo unspecified) > 100 µM (inactive)

Bench note: what GI50 did COc1ccc(CC2c3cc(OC)c(OC)cc3CC[N+]2(C)C)cc1OC (stereo unspecified) show? > 100 µM (inactive)

Which GI50 is listed for COc1cccc([C@H]2CC(=O)c3cc4c(cc3N2)OCO4)c1 ? 0.424 µM (active)

// returns reported GI50 for input COc1ccc(C[C@H]2NC[C@H](OC(C)=O)[C@H]2OC(C)=O)cc1 0.308 µM (active)

For the compound Cc1ccc(S(=O)(=O)N/N=C2/CCCOC2)cc1 , what GI50 is on record? > 100 µM (inactive)

Look up GI50 for this compound: COC(=O)c1ccccc1Nc1ccccc1C(=O)OC 65.2 µM (inactive)

Please look up its GI50: O=C(c1ccccc1)c1sc2c(=O)c(C(=O)c3ccccc3)c(C(=O)c3ccccc3)sc2c(=O)c1C(=O)c1ccccc1 > 100 µM (inactive)

Would you mind telling me what GI50 value was observed for CCC(CON(C)c1ccccc1)(SC)SC ? > 100 µM (inactive)

Item under review: Oc1c(OCc2nnc(CCCCCCCCc3nnc(COc4ccc5ccccc5c4O)o3)o2)ccc2ccccc12 . Reported GI50? 91.8 µM (inactive)

Would you mind telling me what GI50 value was observed for c1ccc(C(Oc2noc3ccccc23)c2ccccc2)cc1 ? 36.2 µM (inactive)

Using the record for CCCCc1ccc(Nc2nc3c(ncn3C3CC(O)C(CN=[N+]=[N-])O3)c(=O)[nH]2)cc1 (stereo unspecified) , report its GI50. > 100 µM (inactive)

May I ask what GI50 has been recorded for COc1cc2cc(C(=O)N3CC(CCl)c4c3cc(N)c3ccccc43)[nH]c2cc1OCCN(C)C (stereo unspecified) ? < 0.005 µM (active)

Give the measured GI50 of CN(C)/C=N/c1c2ccccc2nc2ccccc12 . 5.77 µM (inactive)

Given the entry Cc1cccc(C(O)c2ccccn2)c1O (stereo unspecified) , report its measured GI50. > 100 µM (inactive)

Quick one: GI50 for Cn1c(=O)sc2cc(C(=S)N3CCN(c4ccccc4)CC3)ccc21 ? 27.6 µM (inactive)

Which GI50 reading was recorded for the compound CC(C)(C)OC(=O)NC(Cc1ccc(OCc2ccccc2)cn1)C(=O)N1CCCC1 (stereo unspecified) ? 80 µM (inactive)

Which GI50 value is on record for COC1=C[C@]2(CCC(=O)O2)[C@@H]2Cc3ccccc3[C@H](O)[C@@H]2C1=O ? 34.6 µM (inactive)

I'd like to know its GI50. The compound in question is C/C(=C\COP(=O)(O)OP(=O)(O)O)CC/C=C(\C)CNc1ccccc1 > 50 µM (inactive)

Fill in: GI50 of C/C=C(/C)C(=O)O[C@H]1CCN2CC=C(COC(=O)[C@@](O)([C@H](C)OC)C(C)(C)O)[C@H]12 is ___ > 100 µM (inactive)

Which GI50 is listed for CCOC(=O)[C@@H]1ON2OC(OC3CCCC3(c3ccccc3)c3ccccc3)C(OC(C)=O)[C@H]3OC(=O)[C@@H]1C32 (stereo partly specified) ? > 100 µM (inactive)

Reported GI50 for CC[C@@]1(O)C(=O)OCc2c1cc1n(c2=O)Cc2cc3c(N)cccc3nc2-1 [9-AMINOCAMPTOTHECIN] : what is it? 0.272 µM (active)

Tell me the measured GI50 of NC(N)=NCc1ccc2c(c1)OCO2 , please. 95.3 µM (inactive)
